- Tested on: Plasmodium berghei
- experimental_details: Screen against P. berghei liver stage (PbLuc), transformed with Luciferase, at 2uM
- Format: functional, HepG2
- measurement_setup: tested at 2 uM
About 2,700 (4%) of roughly 68,000 compounds showed an effect of 50% or more. This is one part of a sample in which strong results are shown more often than they occur.
Label class 1 when INHIBITION is at or above 50%; otherwise label class 0.

CC(CNC(=O)c1c[nH]nn1)Oc1ccccc1Br (stereo unspecified) :: class 1
O=C(NCc1c(F)cccc1Cl)c1cc(CN2CCCC(O)C2)on1 (stereo unspecified) :: class 1
CC1CN(c2ncnc3sccc23)CCN1c1nccs1 (stereo unspecified) :: class 0

IN: API: above_or_equal(metric=INHIBITION, cutoff=50%) for item Cc1c(C(=O)NCCC(=O)N2CCCC2)cccc1-c1ccccn1
OUT: class 1

IN: Try this compound too: CC(C)OCc1ncn2c1CN(Cc1cccs1)CCC2
OUT: class 0

IN: Follow-up entry: CC1CN(c2ncnc3c2cnn3C)CCN1c1nccs1 (stereo unspecified)
OUT: class 1

====

- System: Plasmodium berghei
- experimental_details: Screen against P. berghei liver stage (PbLuc), transformed with Luciferase, at 2uM
- Assay type: functional, HepG2
- measurement_setup: tested at 2 uM
Among all 68,000 compounds or so, about 2,700 (4%) showed an effect of 50% or more. Many of the other results were omitted from the sample, so strong results are more common in it than they were.
INHIBITION for assorted compounds

IN: Which value of INHIBITION has been reported for COc1ccc(CN2C[C@@H]3OCCN(CCN4CCCC4)[C@@H]3C2)cc1 in the records?
OUT: 28.85%

IN: Now the compound CCN1CCC(CC(=O)NCCc2nc(C)cc(C)n2)CC1
OUT: 3.4%

IN: Field entry: O=C(c1ccc(F)c(Br)c1)N1CCCN2CCCC2C1 (stereo not drawn)
OUT: -4.48%

====

- Test system: Plasmodium berghei
- experimental_details: Screen against P. berghei liver stage (PbLuc), transformed with Luciferase, at 2uM
- Format: functional, HepG2
- measurement_setup: tested at 2 uM
Among all 68,000 compounds or so, about 2,700 (4%) showed an effect of 50% or more. This is one part of a sample in which strong results are shown more often than they occur.
observable: INHIBITION (%)
Give the number; % is assumed, so skip it.

CC(C)CC(O)C1CCN(C(=O)c2ccc(C(C)C)[nH]c2=O)CC1 (configuration not stated) :: -25.72
O=C(Cc1ccc(S(=O)(=O)C(F)F)cc1)N1CCCC1 :: 33.7
CCc1sc(-c2nnc(CNC(C)Cn3cc(C)cn3)o2)cc1C (configuration not stated) :: -11.19
CN(C)C(C(=O)N1CCN(CCn2cccc2)CC1)c1ccc(F)cc1 (configuration not stated) :: 31.51
O=C(C1CC1)N1CCC2(COCc3cnc(N4CCOCC4)nc32)C1 (configuration not stated) :: 29.95
COCCNc1nc2c(c(N3CCn4nc(C)cc4C3)n1)CCNCC2 :: 51.19

For the next question, use this compound.
IN: Form field - read-out: INHIBITION; system: Plasmodium berghei; submitted item: COCCN1CCN(C(=O)C(c2cccc(F)c2)N(C)C)CC1 (configuration not stated)
OUT: 48.21
